# System: GALAP (catchweed bedstraw)
# testSummary: Pre-plant incorporated (PPI) herbicidal activity, cool season
# Assay type: in vivo, Galium aparine
# testParameters: Galium aparine; weed, PPI application, 30 g/ha; read-out: Percent inhibition GALAP
assayReadout: inhibition at 30 g/ha (%)
Numeric answer only, unit % assumed.

C=CCC(F)(F)S(=O)(=O)c1ncn(C(=O)N(CC)CC)n1 [Example 17]	60
CCSC(F)(F)S(=O)(=O)c1ncn(C(=O)N(CC)CC)n1 [Example 8]	0
C=C(C)CC(F)(F)S(=O)(=O)c1ncn(C(=O)N(CC)CC)n1 [Example 18]	60
CCN(CC)C(=O)n1cnc(S(=O)(=O)C(F)(F)Br)n1 [Example 1]	70

Turning now to a further record.
Prompt line: Any idea what its inhibition at 30 g/ha is? The compound is C=C(Br)CC(F)(F)S(=O)(=O)c1ncn(C(=O)N(CC)CC)n1 [Example 19]
Response line: 100
